Recorded kon by entry
- testedTarget: T1, monovalent hVISTA-ECD (human VISTA extracellular domain with His tail) (human, UniProt Q9H7M9 33-193)
- T1 construct: analyte flowed over captured antibody; also called huVISTA-His
- T1 sequence (Q9H7M9 other isoform, or with tags, fused parts or gaps limits assumed): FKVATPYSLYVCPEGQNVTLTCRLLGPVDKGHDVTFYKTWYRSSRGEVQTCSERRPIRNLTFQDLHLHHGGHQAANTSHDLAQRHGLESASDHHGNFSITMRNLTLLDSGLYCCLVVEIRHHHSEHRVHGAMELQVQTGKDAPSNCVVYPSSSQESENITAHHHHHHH
- procedureDetails: SPR, pH 6.0
Express the result in M⁻¹ s⁻¹ but write the number alone.

Guide cases for kon, answers given:
P1-064391 (41F11_HC_Mutant: D31E/Y50W/S55E/Y100E 41F11_LC_Mutant: V29D/A64G/R91T) (antibody, V domains shown, Kabat positions; also called P1-064391-1) VH: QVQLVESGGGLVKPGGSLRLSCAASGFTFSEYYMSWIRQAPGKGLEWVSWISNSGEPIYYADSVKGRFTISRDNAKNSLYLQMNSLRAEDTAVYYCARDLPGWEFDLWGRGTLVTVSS VL: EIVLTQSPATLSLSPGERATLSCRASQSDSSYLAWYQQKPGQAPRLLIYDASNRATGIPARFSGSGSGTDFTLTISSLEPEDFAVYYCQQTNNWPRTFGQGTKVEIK; 5.1e+06
P1-061528 (41F11 NGS mut VK_A64G/R91A) (antibody, V domains shown, also called P1-061528-2) VH: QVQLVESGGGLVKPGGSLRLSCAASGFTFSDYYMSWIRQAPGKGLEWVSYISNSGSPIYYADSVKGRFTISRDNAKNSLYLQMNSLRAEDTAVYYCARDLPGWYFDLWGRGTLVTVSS VL: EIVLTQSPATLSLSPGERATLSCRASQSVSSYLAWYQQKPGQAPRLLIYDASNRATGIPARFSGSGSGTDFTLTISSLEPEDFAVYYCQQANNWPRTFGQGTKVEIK; 450000

Inquiry: Fill in: kon of P1-065333 (41F11_VH_T28P/Y50W/S55E/L96E/Y100E VK_A64G) (antibody, human IgG1, kappa, V domains shown, IgG1.3; also called P1-065333-1; VISTA.4 pH-independent progeny) VH: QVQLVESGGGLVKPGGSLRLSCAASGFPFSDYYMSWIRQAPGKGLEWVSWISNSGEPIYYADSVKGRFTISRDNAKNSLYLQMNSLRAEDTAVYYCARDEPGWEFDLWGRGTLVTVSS VL: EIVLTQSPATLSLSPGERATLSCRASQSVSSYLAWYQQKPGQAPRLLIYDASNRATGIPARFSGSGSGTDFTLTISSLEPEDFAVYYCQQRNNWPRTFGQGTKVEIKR is ___
Reply text: 3.4e+06

Data provenance: patent US20220073617A1
